TEST: Prodrug conversion in dog liver assessed as 2-((((2R,3R,4R,5R)-4-bromo-4-chloro-5-(2,4-dioxo-3,4-dihydropyrimidin-1(2H)-yl)-3-hydroxytetrahydrofuran-2-yl)methoxy)(hydroxy)phosphorylamino)-2-methylpropanoic acid level at 5 mg/kg, po after 24 hrs
Format: ADME, organism-based, Canis lupus familiaris
CONDITION_INFO: in vivo
Items are presented alongside their recorded Drug metabolism.

[
  {
    "COMPOUND": "CCOC(=O)[C@H](C)NP(=O)(OC[C@H]1O[C@@H](n2ccc(=O)[nH]c2=O)[C@](Cl)(Br)[C@@H]1O)Oc1ccccc1 (stereo partly specified)",
    "PROPERTY_MEASURED": "Drug metabolism",
    "MEASUREMENT": "0.007 µg/g"
  },
  {
    "COMPOUND": "CC(C)C(=O)OC[C@H](C)NP(=O)(OC[C@H]1O[C@@H](n2ccc(=O)[nH]c2=O)[C@](Cl)(Br)[C@@H]1O)Oc1ccccc1 (stereo partly specified)",
    "PROPERTY_MEASURED": "Drug metabolism",
    "MEASUREMENT": "< 0.005 µg/g"
  },
  {
    "COMPOUND": "CC(C)OC(=O)[C@H](C)N[P@](=O)(OC[C@H]1O[C@@H](n2ccc(=O)[nH]c2=O)[C@](Cl)(Br)[C@@H]1O)Oc1ccccc1",
    "PROPERTY_MEASURED": "Drug metabolism",
    "MEASUREMENT": "0.006 µg/g"
  },
  {
    "COMPOUND": "CC(C)OC(=O)[C@H](C)N[P@](=O)(OC[C@H]1O[C@@H](n2ccc(=O)[nH]c2=O)[C@](Cl)(Br)[C@@H]1OC(=O)[C@@H](N)C(C)C)Oc1ccccc1",
    "PROPERTY_MEASURED": "Drug metabolism",
    "MEASUREMENT": "0.006 µg/g"
  },
  {
    "COMPOUND": "CC(C)OC(=O)[C@H](C)N[P@@](=O)(OC[C@H]1O[C@@H](n2ccc(=O)[nH]c2=O)[C@](Cl)(Br)[C@@H]1O)Oc1ccccc1",
    "PROPERTY_MEASURED": "Drug metabolism",
    "MEASUREMENT": "< 0.005 µg/g"
  }
]

Would you kindly look at the next entry?
Req: // query Drug metabolism value for entry CCOC(=O)C(C)(C)NP(=O)(OC[C@H]1O[C@@H](n2ccc(=O)[nH]c2=O)[C@](Cl)(Br)[C@@H]1O)Oc1ccccc1 (stereo partly specified)
Resp: 0.065 µg/g
